- System Under Test: 11β-hsd-1 enzyme (Homo sapiens, UniProt P28845)
- Sequence (P28845 whole entry, species assumed): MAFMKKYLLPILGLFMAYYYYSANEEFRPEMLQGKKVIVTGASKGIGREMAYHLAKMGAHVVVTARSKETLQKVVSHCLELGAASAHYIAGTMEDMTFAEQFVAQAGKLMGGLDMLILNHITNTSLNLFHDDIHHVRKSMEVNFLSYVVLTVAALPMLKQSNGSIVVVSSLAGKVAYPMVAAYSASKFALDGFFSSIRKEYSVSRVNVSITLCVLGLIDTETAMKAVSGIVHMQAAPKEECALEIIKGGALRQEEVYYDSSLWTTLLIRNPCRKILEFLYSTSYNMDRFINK
- Assay Explanation: biochemical
- Condition Description: read-out: % Inh @ 0.1 mM
- Description: Percentage of inhibition was determined in a 100 mM Triethanolamine buffer, pH 8.0, 200 mM NaCl, 0.02% n-dodecyl β-D-maltoside and 5 mM β-ME. […] Percent Inhibition was calculated based on the following equation: (1-(3H-Cortisol peak area in the […] of inhibitor)×100).
Returns one of Fulfilled or Not fulfilled; Fulfilled when inhibition is >= 60%.

* CCc1cccc(NS(=O)(=O)N2CCC(c3cccc(O)c3)CC2)n1 | Fulfilled
* CCc1cccc(NS(=O)(=O)N2CCCC(c3nc(C)no3)C2)n1 (stereo not shown) | Not fulfilled
* Cc1cccc(NS(=O)(=O)N2CCN(c3ncc(C(F)(F)F)cc3Cl)CC2)n1 | Fulfilled
* Cc1cccc(NS(=O)(=O)N2CCN(c3cc(C#N)ccn3)CC2)n1 | Not fulfilled
* O=S(=O)(Nc1ccc2ccccc2n1)N1CCOc2ccccc2C1 | Not fulfilled
* O=S(=O)(Nc1ccc2ccccc2n1)N1CCN(c2ccccn2)CC1 | Fulfilled
* CCCC1CCN(S(=O)(=O)Nc2cccc(CC)n2)CC1 | Fulfilled
* CCc1cccc(NS(=O)(=O)N2CCN(c3ncccc3C#N)CC2)n1 | Fulfilled
* COCC1CCCN(S(=O)(=O)Nc2ccc3ccccc3n2)CC1 (stereo not shown) | Fulfilled
* CCc1cccc(NS(=O)(=O)N2CCN(c3cnccn3)CC2)n1 | Not fulfilled
* CCc1cccc(NS(=O)(=O)N2CCN(c3cc(C#N)ccn3)CC2)n1 | Not fulfilled
* CCc1cccc(NS(=O)(=O)N2CCc3c(Cl)cccc3C2)n1 | Fulfilled
* CCOC(=O)N1CCN(S(=O)(=O)Nc2cccc(C)n2)CC1 | Fulfilled
* Cc1ccc2oc(N3CCN(S(=O)(=O)Nc4ccc5ccccc5n4)CC3)nc2n1 | Not fulfilled
* CCc1cccc(NS(=O)(=O)N2CCN(c3ccc(C(=O)N4CCOCC4)cn3)CC2)n1 | Not fulfilled
* CCCOC1CCN(S(=O)(=O)Nc2cccc(CC)n2)CC1 | Not fulfilled
* O=C(c1ccc(N2CCN(S(=O)(=O)Nc3ccc4ccccc4n3)CC2)nc1)N1CCOCC1 | Fulfilled
* O=S(=O)(Nc1ccc2ccccc2n1)N1CCN(c2ncccc2C(F)(F)F)CC1 | Not fulfilled
* Cc1cccc(NS(=O)(=O)N2CCCN(c3ncccc3C#N)CC2)n1 | Fulfilled

---

- System Under Test: 11β-hsd-1 enzyme (Homo sapiens, UniProt P28845)
- Assay Explanation: biochemical
- Condition Description: read-out: % Inh @ 0.1 mM
- Description: Percentage of inhibition was determined in a 100 mM Triethanolamine buffer, pH 8.0, 200 mM NaCl, 0.02% n-dodecyl β-D-maltoside and 5 mM β-ME. […] Percent Inhibition was calculated based on the following equation: (1-(3H-Cortisol peak area in the […] of inhibitor)×100).
Mark 0 for inhibition values under 80%, and 1 for everything at or above.

• CCc1cccc(NS(=O)(=O)N2CCCN(C(=O)OCc3ccccc3)CC2)n1 [Example 182] = 0
• O=S(=O)(Nc1ccc2ccccc2n1)N1CCCN(c2nc3cc(Cl)ccc3o2)CC1 [Example 180] = 1
• CCc1cccc(NS(=O)(=O)N2CCN(c3ncc(-c4ccc(OC)cc4)cn3)CC2)n1 [Example 144] = 1
• CCOC(=O)N1CCN(S(=O)(=O)Nc2ccc3ccccc3n2)CC1 [Example 160] = 1
• CCc1cccc(NS(=O)(=O)N2CCN(c3ccc(C(=O)NC(C)C)cn3)CC2)n1 [Example 146] = 0
• O=S(=O)(Nc1ccc2ccccc2n1)N1CCCC(c2ccccc2)CC1 (stereo not drawn) [Example 97] = 1
